# % change of MS signal compared to control sample per entry for UniProtKB Q13523
# Sequence (Q13523 whole entry, looked up): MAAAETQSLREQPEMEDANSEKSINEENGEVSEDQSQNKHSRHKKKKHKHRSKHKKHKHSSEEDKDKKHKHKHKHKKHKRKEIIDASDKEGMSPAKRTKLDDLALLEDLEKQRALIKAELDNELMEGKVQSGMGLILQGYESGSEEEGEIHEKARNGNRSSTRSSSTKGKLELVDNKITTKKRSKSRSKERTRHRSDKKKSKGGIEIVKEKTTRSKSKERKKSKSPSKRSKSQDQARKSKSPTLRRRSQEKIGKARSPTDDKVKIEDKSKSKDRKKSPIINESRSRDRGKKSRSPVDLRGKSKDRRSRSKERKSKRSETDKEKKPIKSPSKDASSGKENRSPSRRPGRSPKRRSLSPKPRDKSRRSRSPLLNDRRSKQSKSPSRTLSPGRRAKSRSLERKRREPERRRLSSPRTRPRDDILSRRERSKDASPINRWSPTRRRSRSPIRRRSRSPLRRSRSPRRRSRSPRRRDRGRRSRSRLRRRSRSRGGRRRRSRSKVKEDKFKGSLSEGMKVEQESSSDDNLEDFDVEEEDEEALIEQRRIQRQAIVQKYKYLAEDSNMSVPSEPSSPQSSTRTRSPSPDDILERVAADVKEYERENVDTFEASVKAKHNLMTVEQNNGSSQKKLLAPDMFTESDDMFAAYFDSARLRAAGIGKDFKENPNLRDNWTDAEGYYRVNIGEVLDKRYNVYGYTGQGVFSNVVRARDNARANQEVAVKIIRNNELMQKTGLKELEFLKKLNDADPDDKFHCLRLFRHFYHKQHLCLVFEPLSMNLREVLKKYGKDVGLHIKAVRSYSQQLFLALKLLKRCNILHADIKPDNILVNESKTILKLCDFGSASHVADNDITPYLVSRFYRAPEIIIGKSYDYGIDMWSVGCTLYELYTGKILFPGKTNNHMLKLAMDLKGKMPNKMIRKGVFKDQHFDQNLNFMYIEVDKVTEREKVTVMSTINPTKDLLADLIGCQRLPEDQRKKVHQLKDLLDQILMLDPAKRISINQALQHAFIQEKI
Just the number in %, nothing appended.

# count of solved cases: 3
C=CC(=O)N1CCC(CNc2nccc(Nc3ncc(C(=O)Nc4c(C)cccc4C)s3)n2)C1 (racemic) [Example I-8] ... −10.7
C=CC(=O)N1CCCCC(Nc2nccc(Nc3ncc(C(=O)Nc4c(C)cccc4C)s3)n2)C1 (stereo not shown) [Example I-7] ... −4.1
C=CC(=O)N1CCC(Cn2ccc(Nc3ncc(C(=O)Nc4c(C)cccc4Cl)s3)n2)C1 (stereo not shown) [II-1] ... 6.9

We now examine a further molecule.
Param readout= % change of MS signal compared to control sample; system= UniProtKB Q13523; entry= C=CC(=O)N1CC[C@@H](Nc2nccc(Nc3ncc(C(=O)Nc4c(C)cccc4C)s3)n2)C1 [Example I-4] ; returns value.
6.9
